test system: XIP peptide (Xip251-270); test: small-molecule binders of XIP peptide, primary screen, biochemical, small-molecule microarray, fluorescence 635/667 nm, 0.5 µg/mL protein (AID 1183); details: small-molecule microarray binding, fluorescence 635 nm; higher = more signal

compound | tested.on | composite z-score
COCCCNC(=O)[C@@]1(Cc2ccccc2N=[N+]=[N-])COC(c2ccc(OCCCO)cc2)=N1 | XIP peptide (Xip251-270) | 0.626
CN(C)CCCNC(=O)[C@@]1(c2ccc([N+](=O)[O-])cc2)CC(=O)N(CC23CC4CC(CC(C4)C2)C3)[C@@H]1c1ccc(CO)cc1I | XIP peptide (Xip251-270) | 0.86
N#Cc1ccc(C(O)C2C=CC3C(=O)N(c4ccccc4)C(=O)C3N2Nc2ccccc2)cc1 (stereo not drawn) | XIP peptide (Xip251-270) | 0.108
O=C(CS)NCCCCCNC(=O)[C@@H]1C[C@@H]2C(=O)N3CCC[C@H]3C(=O)N2[C@@H]1c1cccc(OCCO)c1 | XIP peptide (Xip251-270) | 0.839
OCC1CC(c2ccccc2)=NO1 (stereo not drawn) | XIP peptide (Xip251-270) | -0.118
CCCCCCc1nc(-c2cc(C)c(OC)c(C)c2)c(C)c2c1[Si](C(C)C)(C(C)C)OC2 | XIP peptide (Xip251-270) | -0.306
COC(=O)[C@@]1(Cc2ccccc2)[C@H]2c3cc(C(=O)N(C)C)n(CCc4ccc(O)c(OC)c4)c3C[C@H]2CN1C(=O)c1ccccc1 | XIP peptide (Xip251-270) | -0.358
CC1CC/C=C\[C@H]2OC34C=CCN(c5ccc(Cl)cc5)C(=O)[C@H]3N(CCCCCO)C(=O)[C@]4(C)C2C(=O)O1 (stereo partly drawn) | XIP peptide (Xip251-270) | -0.613

====

experiment: Plasmodium falciparum growth inhibition, primary screen, strain 3D7, DAPI fluorescence, 100 nL (AID 1184);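 further: parasites grown inside human red blood cells in medium with human serum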; settings: P. falciparum 3D7 growth, 3 d, higher = more signal
Reported values of z-score for individual entries

compound | z-score
O=c1n(-c2ccccc2)c(=O)n2n1CC(COc1ccccc1)=C([C@H](O)CCc1ccccc1)[C@@H]2CO | -0.601
COc1ccc(CN(C2=CC[C@@]3(C(N)=O)C(=O)C(Cl)=C(Cl)C(=O)[C@@]3(C#N)C2)S(=O)(=O)c2ccc(Br)cc2)cc1 | 0.435
CC1=C[C@@]2(CO)C(=O)[C@]3(CO3)[C@@H]1[C@H]1[C@]2(C)C=C(CO)C(=O)[C@]12CO2 | -1.27
CC=CC(O)C1C=CC2C(=O)N(c3ccccc3)C(=O)C2N1Nc1ccccc1F (centres undefined) | -0.48

====

test system: glycogen synthase kinase-3 (GSK3A per assay name; protocol says GSK3B); assay: GSK3 binders on small-molecule microarrays, primary screen, biochemical, small-molecule microarray, 635 nm fluorescence, GSK3A (AID 1103); conditions: small-molecule microarray binding, fluorescence 635 nm; higher = more signal; further: the record names both GSK3A and GSK3B
Label scheme for composite z-score: lo = under -0.6, med = from -0.6 up to 0.2, hi = 0.2 and over

compound | answer.label
O=C1OCC=C[C@H]2OC34C=CCN(c5ccc(Cl)cc5)C(=O)[C@H]3N(CCO)C(=O)[C@@H]4[C@@H]12 (stereo partly specified) | lo
COCCCNC(=O)[C@@]1(Cc2ccccc2CN=[N+]=[N-])N=C(c2ccc(OCCCO)cc2)O[C@H]1c1ccccc1 | hi
COCCOC(=O)N1C(=O)[C@@]2(c3cc(C#CC4=CCCCC4)ccc31)[C@H](c1ccccc1OCCO)N1[C@H](c3ccccc3)[C@H](c3ccccc3)OC(=O)[C@H]1[C@@H]2C(=O)Nc1nc2ccccc2s1 | hi
COCCCNC(=O)[C@@]1(Cc2ccccc2N=[N+]=[N-])COC(c2ccc(OCCCO)cc2)=N1 | med
O=C1NC(=O)C2C1C=CC(C(O)c1c(F)cccc1Cl)N2Nc1ccc(Cl)cc1Cl (stereo unspecified) | hi
CCOC(=O)C[C@H]1[C@H](OC(=O)Cc2ccc3c(c2)OCO3)[C@@H](NC(=O)Cc2ccc(OC)cc2)c2cc(OCCCO)ccc2N1C(=O)c1ccc2ccccc2n1 | hi
COC(=O)[C@@]1(Cc2ccccc2N=[N+]=[N-])N=C(c2ccc(OCCCO)cc2)O[C@H]1c1ccccc1N=[N+]=[N-] | hi
NC(=O)NCC#Cc1ccc2c(c1)[C@]1(C(=O)N2)[C@H](C(=O)NC[C@H](O)c2ccccc2)[C@H]2C(=O)O[C@H](c3ccccc3)[C@H](c3ccccc3)N2[C@@H]1c1ccc(OCCO)cc1 | med
CCC[C@@H]1C[C@@]1(CCC)[C@@H](NC(=O)OCc1ccccc1)c1ccc(-c2ccccc2)cc1 | lo
COc1ccc(-c2cc3c(c(CCc4ccccc4)n2)[Si](C(C)C)(C(C)C)OC3)cn1 | lo

====

assay: basal RPMI8226 viability, no added stimulus, profiling panel, cell-based, calcein-AM fluorescence, 48 h, PK04 Diversity Set (AID 1166); conditions: RPMI8226 myeloma viability, higher = more signal;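 further: cells grown under basal conditions without added stimulus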
Label scheme for z-score: LOW = under -2, MID = from -2 up to -0.3, HIGH = -0.3 and over

molecule | answer.label
O=C1OCC=C[C@H]2OC34C=CCN(Cc5ccccc5)C(=O)[C@H]3N(CCCCCCO)C(=O)[C@@H]4[C@@H]12 (stereo not given in full) | HIGH
CCOC(=O)C1=CC[C@@H](c2cccc(Cl)c2)N(S(=O)(=O)c2ccc(C)cc2)C1 | MID
CC1CC/C=C\[C@H]2OC34C=CCN(C(C)C)C(=O)[C@H]3N(CCCCCCO)C(=O)[C@@H]4C2C(=O)O1 (stereo not given in full) | HIGH
C=CCNC(=O)[C@H]1[C@@H]2C(=O)O[C@@H](c3ccccc3)[C@@H](c3ccccc3)N2[C@@H](c2ccc(O)cc2)[C@]12C(=O)N(C(=O)OCCOC)c1ccccc12 | MID
CC(C)N1C(=O)C[C@@](C(=O)NCCCN(C)C)(c2ccc([N+](=O)[O-])cc2)[C@H]1c1ccc(CO)cc1 | HIGH
NC(N)=NCCCn1cc(CNC(=O)[C@@H](N)Cc2ccccc2)nn1 | MID
CCOC(=O)C1=C[C@@H](c2ccccc2)N(S(=O)(=O)c2ccc(C)cc2)[C@H]1c1ccccc1Cl | MID
O=C1N(Cc2ccccc2)Cc2ccccc2[C@@H]2OC(c3ccc(OCCCO)cc3)=N[C@]12CCS(=O)(=O)c1ccccc1 | MID
CO[C@]12C=C(Br)[C@@H](C[C@@H]1c1cccc(C)c1)[C@@]1(CO1)C2=O | MID
COc1cc2c(cc1OC)CN(C(=O)[C@@H]1[C@H]3C(=O)O[C@H](c4ccccc4)[C@H](c4ccccc4)N3[C@H](c3ccc(OCCO)cc3)[C@@]13C(=O)Nc1ccccc13)CC2 | HIGH
C=C(/C(=C/C[C@H](OC(C)=O)c1ccccc1OCCO)c1cc(C(=O)OC)ccc1OC)C(C)C | MID
COCCOC(=O)N1C(=O)[C@@]2(c3cc(C#CC4=CCCCC4)ccc31)[C@H](C(N)=O)[C@H]1C(=O)O[C@H](c3ccccc3)[C@H](c3ccccc3)N1[C@@H]2c1ccccc1OCCO | LOW
C=CCNC(=O)[C@H]1[C@@H]2C(=O)O[C@@H](c3ccccc3)[C@@H](c3ccccc3)N2[C@@H](c2ccc(O)cc2)[C@]12C(=O)Nc1ccc(C#CC3(O)CCCCCC3)cc12 | LOW
COCC1=C2[C@@H](CCc3ccccc3)OB(O)C[C@@H]2[C@@H]2C(=O)C=CC(=O)[C@@H]2C1 | LOW
COc1ccc(CCNC(=O)[C@@H]2c3ccccc3C(=O)N(Cc3cc(C(F)(F)F)cc(C(F)(F)F)c3)[C@H]2c2ccc(CO)cc2)cc1 | MID

====

experiment: PSAC antagonists in infected red cells, primary screen, cell-based, P. falciparum Indochina, OD700, 1 h (AID 1154); conditions: P. falciparum Indochina infected RBC osmotic lysis, higher = more signal, called active from +8 up or from −8 down
Reported values of z-score for individual entries

compound | z-score
O=C1O[C@@H](c2ccccc2)[C@@H](c2ccccc2)N2[C@@H](c3ccccc3OCCO)[C@]3(C(=O)Nc4ccc(C#CCCO)cc43)[C@@H](C(=O)N3CCCCCCC3)[C@H]12 | 1.01
COCCOC(=O)N1C(=O)[C@@]2(c3cc(C#CC4=CCCCC4)ccc31)[C@H](c1ccccc1OCCO)N1[C@H](c3ccccc3)[C@H](c3ccccc3)OC(=O)[C@H]1[C@@H]2C(=O)Nc1nc2ccccc2s1 | 3.53
CN(C)C(=O)[C@@]1(CCS(=O)(=O)c2ccccc2)N=C(c2ccc(OCCCO)cc2)O[C@H]1c1ccccc1 | 28.3
CC1=C([C@H](O)CCc2ccccc2)[C@H](CO)[C@@H]2C(=O)N(C)C(=O)[C@@H]2C1 | 4.81
COC(=O)[C@@]1(Cc2ccccc2)[C@@H]2C(=CC(=O)[C@H]2CC(=O)C(=O)N(C)C)CN1C(=O)c1ccccc1 | 4.6
COc1ccccc1CN1C(=O)c2ccccc2[C@@]2(Cc3ccccc3N(CC(F)(F)F)C2=O)[C@@H]1c1ccc(CO)cc1 | 0.252
CCOC(=O)C1CCCCN1 (configuration not stated) | -0.536
